Assay Procedure: In vitro MTT cytotoxicity assay on MDBK cells
Format: cell-based, bovine
Particulars: bovine, MDBK cells (NBL-1 strain)

| Molecule | viability at 24 h, 10 µM |
| --- | --- |
| Cc1cc(O)cc(O)c1 [Component H-2, 5-Methylbenzene-1,3-diol] | 94.8% |
| O=c1c(O[C@@H]2O[C@@H](CO)[C@H](O)[C@H]2O)c(-c2ccc(O)c(O)c2)oc2cc(O)cc(O)c12 [Component G-1, Avicularin] | 88.5% |
| O=c1c(O[C@@H]2O[C@H](CO)[C@@H](O)[C@H](O)[C@H]2O)c(-c2ccc(O)c(O)c2)oc2cc(O)cc(O)c12 [Component A-4, Isoquercitrin] | 104% |
| Oc1cc(O)c2c(c1)O[C@H](c1cc(O)c(O)c(O)c1)[C@@H](O)C2 [Component F-1, Gallocatechin] | 93.9% |
| OC[C@H]1O[C@@H](Oc2ccc(O)cc2)[C@H](O)[C@@H](O)[C@@H]1O [E−1, Arbutin] | 87.1% |
| CC1(C)CC[C@]2(C(=O)O)CC[C@]3(C)C(=CC[C@@H]4[C@@]5(C)CC[C@H](O)C(C)(C)[C@@H]5CC[C@]43C)[C@@H]2C1 [Component C-5, Oleanolic acid] | 102% |

###

Collected Average cell viability (%) values appear next to each entry.
Tested on: Madin-Darby bovine kidney (MDBK) cells
Assay Procedure: In vitro MTT cytotoxicity assay on MDBK cells
Format: cell-based
Particulars: MDBK cells, 100 μM, 24 h, MTT
Observable: Average cell viability (%)

| Molecule | Reported Measurement |
| --- | --- |
| COc1cc(CCc2ccccc2O)cc(OC)c1O | 107.3 |
| O=C(CCc1ccc(O)cc1)c1c(O)cc(O)cc1O[C@@H]1O[C@H](CO)[C@@H](O)[C@H](O)[C@H]1O | 107.4 |
| O=C(CCc1ccc(O)cc1)c1c(O)cc(O[C@@H]2O[C@H](CO)[C@@H](O)[C@H](O)[C@H]2O)cc1O | 93.6 |
| Oc1cc(O)c2c(c1)OC(c1ccc(O)c(O)c1)C(O)C2 (stereo not shown) | 114.0 |
| C[C@@H]1O[C@@H](O[C@H]2[C@H](O)[C@@H](O)[C@H](OC[C@H]3O[C@@H](OC(=O)[C@]45CCC(C)(C)C[C@H]4C4=CC[C@@H]6[C@@]7(C)CC[C@H](O[C@@H]8OC[C@H](O)[C@H](O)[C@H]8O[C@@H]8O[C@H](CO)[C@@H](O)[C@H](O)[C@H]8O)[C@@](C)(CO)[C@@H]7CC[C@@]6(C)[C@]4(C)CC5)[C@H](O)[C@@H](O)[C@@H]3O)O[C@@H]2CO)[C@H](O)[C@H](O)[C@H]1O [Component I-1, Cauloside G] | 89.4 |
| COC1OC(CO)C(O)C(O)C1O (stereo not drawn) [Component F-2, β-Methylglucoside] | 104.9 |

###

Assay Procedure: In vitro MTT cytotoxicity assay on MDBK cells
Type: cell-based, bovine
Particulars: bovine, MDBK cells (NBL-1 strain)

| Compound | Result Units | viability at 24 h, 100 µM |
| --- | --- | --- |
| Oc1cc(O)cc(/C=C/c2ccccc2)c1 | % | 106 |
| COc1cc(C)cc(O)c1 | % | 112 |
| CC1(C)CC[C@]2(C)CC[C@]3(C)C(=CC[C@@H]4[C@@]5(C)CC[C@H](O)C(C)(C)[C@@H]5CC[C@]43C)[C@@H]2C1 | % | 82.4 |
| CC[C@@H](C(=O)[C@@H](C)[C@@H](O)[C@H](C)CCc1ccc(C)c(O)c1C(=O)O)[C@H]1O[C@](CC)([C@H]2CC[C@](O)(CC)[C@H](C)O2)C[C@@H]1C [lasalocid, reference compound] | % | 0.4 |
| Cc1cc(O)cc(O)c1 | % | 93.3 |
| C[C@H]1[C@H](C)CC[C@]2(CO)CC[C@]3(C)C(=CC[C@@H]4[C@@]5(C)CC[C@H](O)C(C)(C)[C@@H]5CC[C@]43C)[C@H]12 | % | 36.2 |

Where do the numbers come from? From paper PMC11362645.
